- Subject of test: Cytochrome P450 2C19 (Homo sapiens) (UniProt P33261)
- Sequence (P33261 whole entry, looked up): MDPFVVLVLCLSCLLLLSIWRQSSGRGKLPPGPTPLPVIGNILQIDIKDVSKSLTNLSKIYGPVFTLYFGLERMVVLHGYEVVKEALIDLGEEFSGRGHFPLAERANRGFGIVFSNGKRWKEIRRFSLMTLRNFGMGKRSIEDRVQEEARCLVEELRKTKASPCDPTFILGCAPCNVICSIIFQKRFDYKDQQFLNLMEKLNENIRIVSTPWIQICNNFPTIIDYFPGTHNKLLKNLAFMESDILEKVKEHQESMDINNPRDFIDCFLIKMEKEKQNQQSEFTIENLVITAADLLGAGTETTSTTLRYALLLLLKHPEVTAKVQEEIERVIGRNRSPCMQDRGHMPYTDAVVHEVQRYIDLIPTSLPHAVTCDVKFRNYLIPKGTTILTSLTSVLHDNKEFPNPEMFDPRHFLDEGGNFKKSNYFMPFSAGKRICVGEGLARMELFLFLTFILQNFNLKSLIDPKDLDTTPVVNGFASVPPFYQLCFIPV
- Test: blockers of cytochrome P450 2C19 activity – biochemical, luminescence, ADME assay, primary screen (AID 778);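 also: plate controls were negative control wells for no effect and 2.5 mM tranylcypromine positive control for full effect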
- Assay setup: CYP2C19 Supersomes, luciferin-H EGE luminescence, 30 min; at 5 µM
Screen size: about 96,000 compounds; about 20,000 (21%) were called active.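 The calls were made as follows: active = CYP2C19 inhibition above a set limit at 5 µM in the primary screen (cut at about 50% in these data); inactive = the rest.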 A selection follows.
Labels: 1.0 for active, 0.0 for inactive

{"Molecule": "CCOC(=O)C1=C(CSc2nccn2C)NC(=O)NC1c1ccc(OC)cc1 (centres undefined)", "Label class": 0.0}
{"Molecule": "CCCNC(=S)NC1CC2CCCC(C1)N2CC(C)C (centres undefined)", "Label class": 0.0}
{"Molecule": "COc1ccc(-n2cnc3cc(NCc4ccco4)ccc32)cc1", "Label class": 0.0}
{"Molecule": "O=C(CCc1ccccc1)Nc1ccc(NC(=O)C2CC2)nc1", "Label class": 0.0}
{"Molecule": "CCOC(=O)N1CCN(c2c(NCCCN3CCCC(C)C3)c(=O)c2=O)CC1 (centres undefined)", "Label class": 0.0}
{"Molecule": "CN(C(=O)CSc1nc(C2CC2)nc2ccccc12)c1nc(-c2ccccc2)cs1", "Label class": 0.0}
{"Molecule": "CCN(CC)c1ccc(/C=N/Nc2nc(C)cc(=O)[nH]2)cc1", "Label class": 0.0}
{"Molecule": "O=C(CCCCCn1c(=O)[nH]c2ccccc2c1=O)NCCc1c[nH]c2ccccc12", "Label class": 1.0}
{"Molecule": "O=C(CCn1c(=O)[nH]c2ccccc2c1=O)NCCCN1CCN(c2cccc(Cl)c2)CC1", "Label class": 0.0}
{"Molecule": "COc1cccc(N=c2oc3c(C)ncc(CO)c3cc2C(N)=O)c1", "Label class": 0.0}
{"Molecule": "CNC(=O)C1CC(=O)N(Cc2ccc3c(c2)OCO3)C(=Nc2ccc(F)cc2)S1 (centres undefined)", "Label class": 0.0}
{"Molecule": "CC1(C)CC(=O)C(C=NCc2cccnc2)=C(O)C1", "Label class": 0.0}
{"Molecule": "O=C1N(Cc2ccc3c(c2)OCO3)c2ccccc2C1(O)c1c[nH]c2ccccc12 (centres undefined)", "Label class": 1.0}
{"Molecule": "O=C(Nc1nnc(SCc2ccccc2)s1)c1ccco1", "Label class": 0.0}
{"Molecule": "Cc1nc2c(C(=O)NCc3ccc4c(c3)OCO4)c[nH]n2c(=O)c1Cc1ccccc1F", "Label class": 0.0}
{"Molecule": "Nn1cnnc1N/N=C/c1cc([N+](=O)[O-])c(Cl)cc1Cl", "Label class": 0.0}
{"Molecule": "COc1ccc(C(=O)NN(C)c2nc(-c3ccccc3)cc(C)c2S(C)(=O)=O)cc1", "Label class": 0.0}
{"Molecule": "COC(=O)c1c(C)c(C)nc(N)c1C#N", "Label class": 0.0}
{"Molecule": "CN(C)CCCn1c(N)c(C#N)c2nc(C#N)c(C#N)nc21", "Label class": 0.0}
{"Molecule": "COc1ccc(Nc2cc(C)nc(-n3nc(C)cc3C)n2)cc1", "Label class": 0.0}
{"Molecule": "Cn1nnnc1SCc1cc(=O)[nH]c2ccccc12", "Label class": 0.0}
{"Molecule": "CN(NC(=O)c1ccccc1)c1nc2ccccc2nc1C(F)(F)F", "Label class": 0.0}
{"Molecule": "CCOC(=O)C1=C(CSc2nnnn2C)N(C)C(=O)NC1c1ccccc1 (centres undefined)", "Label class": 1.0}
{"Molecule": "COc1ccc(CNc2ccc3c(c2)CCC3)cc1OC", "Label class": 0.0}
{"Molecule": "N#C/C=C1\\Sc2ccccc2C(=O)N1CC(=O)N1CCN(S(=O)(=O)c2ccccc2)CC1", "Label class": 0.0}
{"Molecule": "c1cnn(-c2cc(N3CCOCC3)ncn2)c1", "Label class": 0.0}
{"Molecule": "CCc1ccc(C(=O)CSc2nnc(C)c(=O)[nH]2)cc1", "Label class": 0.0}
{"Molecule": "COc1ccc(CC(=O)Nc2ccc3c(c2)CCC3)cc1S(=O)(=O)N1CCOCC1", "Label class": 1.0}
{"Molecule": "O=C(NCc1ccccc1Cl)c1csc2c1CCCCC2", "Label class": 0.0}
{"Molecule": "CC1(C)Cc2ccccc2-c2nnc(-c3cccc(O)c3)n21", "Label class": 0.0}
{"Molecule": "CCC(=O)c1cc2c(cc1NC(=O)c1cccs1)OCCO2", "Label class": 0.0}
{"Molecule": "CCOCCCNC(=O)C(NC(=O)c1ccc(=O)[nH]c1)c1ccc(C)cc1 (centres undefined)", "Label class": 0.0}
{"Molecule": "O=C(CC(NS(=O)(=O)c1ccc(Cl)cc1)c1ccco1)NC1CCCC1 (centres undefined)", "Label class": 1.0}
{"Molecule": "COc1ccccc1C(=O)Nc1nc2nc(-c3ccccc3)cc(=O)n2[nH]1", "Label class": 0.0}
{"Molecule": "COc1ccccc1Oc1ccc(S(=O)(=O)Nc2cccnc2)cc1", "Label class": 1.0}
{"Molecule": "O=C(c1cc(-c2ccc(O)cc2)on1)N1CCCc2ccccc21", "Label class": 1.0}
{"Molecule": "CCC(C)NC(=O)c1c(N)n(/N=C/c2cccs2)c2nc3ccccc3nc12 (centres undefined)", "Label class": 0.0}
{"Molecule": "COc1cccc(CN2C(=O)CCC2(C)C(=O)NC2CCCCCC2)c1 (centres undefined)", "Label class": 0.0}
{"Molecule": "CC(NC(=O)COc1ccccc1)C(=O)NC1=NCCS1 (centres undefined)", "Label class": 0.0}

* * *

- Subject of test: Cytochrome P450 2C19 (Homo sapiens)
- Test: blockers of cytochrome P450 2C19 activity – biochemical, luminescence, ADME assay, primary screen (AID 778);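 also: plate controls were negative control wells for no effect and 2.5 mM tranylcypromine positive control for full effect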
- Assay setup: CYP2C19 Supersomes, luciferin-H EGE luminescence, 30 min; at 5 µM; active compounds read high
In all, about 96,000 compounds went through this assay and about 20,000 (21%) were called active. Only a sample is shown.
Decide by inhibition: equal to or exceeding 10% means Criterion met, less means Criterion not met.

{"Compound": "CC1(C)CC(=O)C(C=NCCN2CCN(C(=S)Nc3cccc(Cl)c3)CC2)=C(O)C1", "Subject of test": "Cytochrome P450 2C19 (Homo sapiens)", "Label class": "Criterion met"}
{"Compound": "CC1(C)CC(=O)C(C=NCCC2=CCCCC2)=C(O)C1", "Subject of test": "Cytochrome P450 2C19 (Homo sapiens)", "Label class": "Criterion not met"}
{"Compound": "COc1cc(C2C(C#N)=C(N)Oc3n[nH]c(-c4ccccn4)c32)cc(OC)c1OC (centres undefined)", "Subject of test": "Cytochrome P450 2C19 (Homo sapiens)", "Label class": "Criterion not met"}
{"Compound": "COc1ccc(C(=O)Nc2ccccc2C(=O)N/N=C/c2ccccc2OC)cc1", "Subject of test": "Cytochrome P450 2C19 (Homo sapiens)", "Label class": "Criterion not met"}
{"Compound": "N#CC1=C(N)OC2=C(C(=O)CCC2)C1C1CC=CCC1 (centres undefined)", "Subject of test": "Cytochrome P450 2C19 (Homo sapiens)", "Label class": "Criterion met"}
{"Compound": "CCOC(=O)Nc1ccccc1N1C(=O)c2ccccc2C1=O", "Subject of test": "Cytochrome P450 2C19 (Homo sapiens)", "Label class": "Criterion not met"}
{"Compound": "CC(C)(CCl)C(=O)Nc1ccc(Sc2ccc(F)cc2)cc1", "Subject of test": "Cytochrome P450 2C19 (Homo sapiens)", "Label class": "Criterion not met"}
{"Compound": "COCc1[nH]nc2c1C(C1C=CCCC1)C(C#N)=C(N)O2 (centres undefined)", "Subject of test": "Cytochrome P450 2C19 (Homo sapiens)", "Label class": "Criterion met"}
{"Compound": "COc1ccc(C(=O)Nc2ccccc2C(=O)N/N=C/c2ccc(O)c(OC)c2)cc1", "Subject of test": "Cytochrome P450 2C19 (Homo sapiens)", "Label class": "Criterion met"}

* * *

// inhibition lookup, one value per entry
- Subject of test: Cytochrome P450 2C19 (Homo sapiens)
- Test: blockers of cytochrome P450 2C19 activity – biochemical, luminescence, ADME assay, primary screen (AID 778);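 also: plate controls were negative control wells for no effect and 2.5 mM tranylcypromine positive control for full effect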
- Assay setup: CYP2C19 Supersomes, luciferin-H EGE luminescence, 30 min; at 5 µM; active compounds read high
The whole screen tested about 96,000 compounds, of which about 20,000 (21%) were called active. Not all results are given here.
Quantity kind: inhibition

{"Compound": "Cc1ccc(S(=O)(=O)N2CCCC2C(=O)NCc2ccco2)cc1 (configuration not stated)", "Measured result": "81.7% (active)"}
{"Compound": "Cc1cc(C)nc(NC(=O)C(C)N2C(=O)c3ccccc3C2=O)n1 (configuration not stated)", "Measured result": "-21.4% (inactive)"}
{"Compound": "CCOC(=O)N1CCN(S(=O)(=O)c2cc3c(cc2C)NC(=O)CO3)CC1", "Measured result": "12.1% (inactive)"}
{"Compound": "CCOC(=O)Cn1c(CN(Cc2ccccc2)Cc2ccccc2)nc2c1c(=O)[nH]c(=O)n2C", "Measured result": "16.4% (inactive)"}
{"Compound": "N=c1c2c3c(sc2ncn1CCCN1CCOCC1)CCCCC3", "Measured result": "7.8% (inactive)"}
{"Compound": "O=C(NCc1ccco1)C1CCCN(S(=O)(=O)c2cnc[nH]2)C1 (configuration not stated)", "Measured result": "55.3% (active)"}
{"Compound": "Cc1cccc(N(CC(=O)N2CCOCC2)S(C)(=O)=O)c1", "Measured result": "3.3% (inactive)"}
{"Compound": "Cc1c(C(=O)Nc2ccccc2Cl)oc2ccc(S(=O)(=O)N3CCC4(CC3)OCCO4)cc12", "Measured result": "7.5% (inactive)"}
{"Compound": "CCCNC(=O)c1ccccc1NC(=O)CSCc1ccc(OC)cc1", "Measured result": "45.7% (inactive)"}
{"Compound": "N#C/C(=C1\\CCCN1)c1nc(-c2ccccc2)cs1", "Measured result": "54.2% (active)"}
{"Compound": "O=[N+]([O-])c1ccc(C=Nc2ccc(Cl)cc2Cl)s1", "Measured result": "10.8% (inactive)"}
{"Compound": "Nc1ccccc1SCc1cc([N+](=O)[O-])cc2c1OCOC2", "Measured result": "19.4% (inactive)"}
{"Compound": "CCOC(=O)c1cccc(NC(=O)C2CCCN(S(=O)(=O)c3cnc[nH]3)C2)c1 (configuration not stated)", "Measured result": "58.5% (active)"}
{"Compound": "CC1CCC2(CC1)NC(=O)N(CC(=O)c1cccn1C)C2=O (configuration not stated)", "Measured result": "9.9% (inactive)"}
{"Compound": "O=C1CCCC(O)=C1C=NCCc1ccccc1", "Measured result": "12.8% (inactive)"}
{"Compound": "Cn1c(=O)n(C)c2cc(CNc3ccc(N4CCOCC4)c(C(=O)O)c3)ccc21", "Measured result": "-18.6% (inactive)"}
{"Compound": "O=C(CNC(=O)Cc1ccccc1)NCC(=O)OCC(=O)c1ccccc1Cl", "Measured result": "1.6% (inactive)"}
{"Compound": "CC(C)(C)NC(=O)NC(=O)COC(=O)Cn1c(C(F)(F)F)nc2ccccc21", "Measured result": "54.6% (active)"}
{"Compound": "O=C(NCCCN1CCN(C2CCCCC2)CC1)Nc1ccccc1C(F)(F)F", "Measured result": "-6.6% (inactive)"}
{"Compound": "CC(=O)Nc1ccc(N2C(=O)CCC2=O)cc1C", "Measured result": "9.8% (inactive)"}
{"Compound": "CCOc1ccccc1-n1c(SCC(=O)N2CCCC2)nnc1-c1ccoc1C", "Measured result": "2% (inactive)"}
{"Compound": "COC(=O)c1ccc2c(c1)S(=O)(=O)NC(=NCCCN1CCOCC1)S2", "Measured result": "6.8% (inactive)"}
{"Compound": "CC(C)c1ccc(NC(=O)CCN2C(=O)c3ccc([N+](=O)[O-])cc3C2=O)cc1", "Measured result": "8.5% (inactive)"}
{"Compound": "N#CC(=C1SC=CS1)c1nc(-c2ccccc2)cs1", "Measured result": "65.1% (active)"}
{"Compound": "CC(=O)N1CC2(C)CN(C(C)=O)CC(C)(C1)C2=O", "Measured result": "79.3% (active)"}
{"Compound": "OC(CN1C2=NCCCN2c2ccccc21)c1ccc(Br)cc1 (configuration not stated)", "Measured result": "11.9% (inactive)"}
{"Compound": "CCOC(=O)N1CCN(C(=O)c2nn(-c3ccc(C)cc3)c(=O)c3c2c2ccccc2n3C)CC1", "Measured result": "-2.9% (inactive)"}
{"Compound": "Cc1ccc(S(=O)(=O)N2CCCC2CO)cc1 (configuration not stated)", "Measured result": "18.4% (inactive)"}
{"Compound": "CC1=CC(C)(C)Nc2ccc(OC(=O)CN3C(=O)C4CCCCC4C3=O)cc21 (configuration not stated)", "Measured result": "16% (inactive)"}
{"Compound": "Cc1ccccc1OC(=O)Cn1c(C(F)(F)F)nc2ccccc21", "Measured result": "35.4% (inactive)"}
{"Compound": "COc1cccc(-c2nc3cc(C)ccc3o2)c1", "Measured result": "42.7% (inactive)"}
{"Compound": "O=C(N/N=C/c1ccc(O)cc1)/C(=C/c1ccc([N+](=O)[O-])cc1)NC(=O)c1ccccc1", "Measured result": "7.9% (inactive)"}
{"Compound": "CC(C)NC(=O)CSc1ccccc1C(=O)NCc1ccc2c(c1)OCO2", "Measured result": "33.8% (inactive)"}
{"Compound": "CCCCn1c(CCCNC(=O)CC)nc2ccccc21", "Measured result": "-20% (inactive)"}
{"Compound": "O=C(c1ccco1)N1CCN(CC(=O)N(C2CCCCC2)C2CCS(=O)(=O)C2)CC1 (configuration not stated)", "Measured result": "-21.3% (inactive)"}
{"Compound": "CCSc1ccccc1C(=O)NCc1ccc(OC)cc1", "Measured result": "96.2% (active)"}
{"Compound": "CCOC(=O)C1=C(CN2CCc3ccccc32)NC(=O)NC1c1ccc(Cl)cc1 (configuration not stated)", "Measured result": "26.5% (inactive)"}

Measured values drawn from PubChem BioAssay AID778 for this set.
